measurement.notes: Binding affinity towards Opioid receptor delta 1
recorded.metric: Ki

Form field: reported Ki of CN1CCC2(c3cccc(O)c3)CCCC1C2 (stereo unspecified)
> 500 nM
